Just for reference, PubChem BioAssay AID248 is where these values come from.

Tested on: L1210 leukemia ip in BDF1 mice, survival T/C
Assay: NCI In Vivo Anticancer Drug Screen. Data for tumor model L1210 Leukemia (intraperitoneal) in B6D2F1 (BDF1) mice
Conditions: endpoint: mean survival time; dose: 200.0 mg/kg/injection; schedule: Q04DX003 (ip); vehicle: saline with Tween-80; higher = longer survival
Inconclusive results and toxic doses are left out.
quantity: T/C

Below, 2 molecules whose answers are already recorded.
Please give the measured T/C for this molecule: CCOC(=O)/C(C#N)=C/c1cc2c3c(c1)CCCN3CCC2
93 % of control

Proceed to O=C1OC(=O)C2C3CC(C(Br)C3Br)C12 (stereo not given)
98 % of control

***
Please give the measured T/C for this molecule: COC(OC)c1[nH]c(=S)[nH]c(=O)c1Cc1cc([N+](=O)[O-])ccc1O
97 % of control

Proceed to CCC(=O)/C(=C\c1ccccc1Cl)C(C)=O
117 % of control

Proceed to CCCCCC(C)O[Si](C)c1cccc2ccccc12 (stereo not given)
92 % of control

Proceed to CCOP(=S)(OCC)SCc1ccc(C)cc1
103 % of control

Proceed to CCC12CCC(Br)C(C1)OC2=O (stereo not given)
91 % of control

Proceed to Cc1[o+]c(C)c2c(c1C)-c1ccccc1C2=O
98 % of control

Proceed to O=C(O)c1ccc(COc2ccc([N+](=O)[O-])cc2Cl)cc1
96 % of control

====

Test system: L1210 leukemia ip in BDF1 mice, survival T/C
Assay: NCI In Vivo Anticancer Drug Screen. Data for tumor model L1210 Leukemia (intraperitoneal) in B6D2F1 (BDF1) mice
Conditions: endpoint: mean survival time; dose: 50.0 mg/kg/injection; schedule: Q04DX003 (ip); vehicle: saline with Tween-80; higher = longer survival
Toxic doses and inconclusive results are not listed.
quantity: T/C

Below, 9 molecules whose answers are already recorded.
Please give the measured T/C for this molecule: O=N[O-].[Co].[N-]=C=S.[NH2-].[NH2-].[NH2-].[NH2-]
88 % of control

Proceed to CC(C)OCCSP(SCCOC(C)C)SCCOC(C)C
107 % of control

Proceed to Cc1ccc2cccc([N+](=O)[O-])c2n1
95 % of control

Proceed to c1ccc([P+](c2ccccc2)(c2ccccc2)C2OCCO2)cc1
103 % of control

Proceed to C#CC(=O)OCC
119 % of control

Proceed to O=C1CCSC(=S)N1c1cccc(C(F)(F)F)c1
104 % of control

Proceed to COc1ccc([I+]c2ccccc2)cc1
93 % of control

Proceed to c1cc2ccsc2cn1
103 % of control

Proceed to C[n+]1ccc2cc(N)c3c4ccccc4sc3c2c1
115 % of control

Continue with the molecule presented below.
Please give the measured T/C for this molecule: C1CCCCCC(NC2=NCCO2)CCCCC1
102 % of control

====

System: L1210 leukemia ip in BDF1 mice, survival T/C
Assay: NCI In Vivo Anticancer Drug Screen. Data for tumor model L1210 Leukemia (intraperitoneal) in B6D2F1 (BDF1) mice
Conditions: endpoint: mean survival time; dose: 6.25 mg/kg/injection; schedule: Q01DX009 (ip); vehicle: saline with Tween-80; higher = longer survival
Toxic doses and inconclusive results are not listed.
quantity: T/C

Below, 3 compounds whose answers are already recorded.
// fetch L1210 leukemia ip in BDF1 mice, survival T/C T/C for O/N=C/C=N/O.O/N=C/C=N/O.[Pd]
112 % of control

Proceed to O=[N+]([O-])/C=C\C(Cl)(Cl)Cl
96 % of control

Proceed to CCCCCCCCCCCCOCC[N+](C/C=C/c1ccccc1)(CCO)CCO
93 % of control

***
// fetch L1210 leukemia ip in BDF1 mice, survival T/C T/C for O=[N+]([O-])/C=C/c1ccc2ccccc2n1
97 % of control

Proceed to C/C=C/C[P+](Cc1cccc(C)c1)(c1ccccc1)c1ccccc1
113 % of control
